biological target: human cathepsin L (CatL) (Homo sapiens (Human)); test: CatL functional enzyme assay; assay type: biochemical; settings: read-out: hCatL, inhibition [%] at 31.6 μM
Sequence (P07711 114-333): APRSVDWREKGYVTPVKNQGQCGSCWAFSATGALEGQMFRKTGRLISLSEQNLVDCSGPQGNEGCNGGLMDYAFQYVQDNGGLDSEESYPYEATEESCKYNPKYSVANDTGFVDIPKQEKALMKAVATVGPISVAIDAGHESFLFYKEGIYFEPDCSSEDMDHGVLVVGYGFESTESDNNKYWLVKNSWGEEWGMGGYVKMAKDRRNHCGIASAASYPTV
PROPERTY LABEL: inhibition at 31.6 µM (%)

{"columns": ["MOLECULE SMILES", "VALUE MEASURED"],
 "data": [
  ["O=C(N[C@H](C(=O)N1C[C@H](Cl)[C@H]2OCC(=O)[C@H]21)C1CCCCC1)c1sc(-c2cccnc2)cc1F", 5]
]}

[P] O=C(N[C@H](C(=O)N1C[C@H](Cl)[C@H]2OCC(=O)[C@H]21)C1CCCCC1)c1ccc(-c2ccncc2)s1
[Q] O=C(N[C@H](C(=O)N1C[C@H](Cl)[C@H]2OCC(=O)[C@H]21)C1CCCCC1)c1cc(F)c(-c2cccnn2)s1
Select the item whose inhibition at 31.6 µM value is smaller, choosing between P and Q . Bench note: the answer is the label of the chosen record.
P
(P: 5%, Q: 27%)
